- Assay Method Text: Volume of distribution in rat at 10 umol/kg
- Assay type: ADME, organism-based
- Test Settings: in vivo, read-out: Vbeta
Measurement Name: Vd (L/kg)
Just the number in L/kg, nothing appended.

For "O=C(NCc1ccc(N2CCCCCC2)c(F)c1)Nc1cccc2cnccc12" the compound record lists Vd as 1.8

// field: Vd; key: "O=C(NCc1ccc(N2[C@@H]3CCC[C@H]2CC3)c(C(F)(F)F)c1)Nc1cccc2[nH]ncc12" ; value = 2.1

###

- Assay Method Text: Binding affinity to sodium channel
- Design: species or system Homo sapiens
Measurement Name: IC50

What the record says about "O=C(NCc1ccc(N2[C@@H]3CCC[C@H]2CC3)c(C(F)(F)F)c1)Nc1cccc2[nH]ncc12" : IC50 is > 5 µM

###

- Assayed System: Adenosine receptor A3 (Homo sapiens, UniProt P0DMS8)
- Sequence (P0DMS8 whole entry): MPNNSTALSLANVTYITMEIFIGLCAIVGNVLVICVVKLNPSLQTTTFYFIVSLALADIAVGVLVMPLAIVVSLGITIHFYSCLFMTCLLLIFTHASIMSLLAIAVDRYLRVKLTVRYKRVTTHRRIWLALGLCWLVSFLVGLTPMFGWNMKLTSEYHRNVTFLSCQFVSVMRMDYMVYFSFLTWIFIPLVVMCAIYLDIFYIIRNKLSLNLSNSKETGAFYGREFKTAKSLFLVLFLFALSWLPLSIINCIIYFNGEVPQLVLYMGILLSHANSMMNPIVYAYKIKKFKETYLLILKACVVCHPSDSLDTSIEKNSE
pIC50: −log10 of the molar value.
Measurement Name: pIC50

Form: compound = "O=C(NCc1ccc(N2[C@@H]3CCC[C@H]2CC3)c(C(F)(F)F)c1)Nc1cccc2[nH]ncc12" ; pIC50 = < 5.30

###

In this section, each of the compounds is paired with its reported bioavailability.
- Assay Method Text: Oral bioavailability in rat at 10 umol/kg, po
- Type: ADME, organism-based
- Test Settings: in vivo
The reply should be a number in %, with the unit left off.

Smiles Record	bioavailability [%]
O=C(NCc1ccc(N2[C@@H]3CCC[C@H]2CC3)c(C(F)(F)F)c1)Nc1cccc2[nH]ncc12	21

Please fill in: bioavailability reported for "O=C(NCc1ccc(N2CCCCCC2)c(F)c1)Nc1cccc2cnccc12" = 10

###

Measured Stability, listed per entry for reference.
- Tested on: Liver microsomes
- Assay Method Text: Stability in rat liver microsomes at 0.5 uM after 30 mins
- Format: ADME, Microsome
- Test Settings: 0.5 h
Could you give the number and then its unit, please?

Smiles Record	Stability
O=C(NCc1ccc(N2[C@@H]3CCC[C@H]2CC3)cc1)Nc1cccc2cnccc12	247 pmol/min/mg

"O=C(NCc1ccc(N2[C@@H]3CCC[C@H]2CC3)c(F)c1)Nc1cccc2[nH]ncc12" yielded Stability of 394 pmol/min/mg

# compound "O=C(NCc1ccc(N2CCCCCC2)c(C(F)(F)F)c1)Nc1cccc2cnccc12" ; its Stability = 689 pmol/min/mg

Notebook: "O=C(NCc1ccc(N2CCCCCC2)c(F)c1)Nc1cccc2cnccc12" , Stability read as 366 pmol/min/mg

Lab note: measured Stability of "O=C(NCc1ccc(C(F)(F)F)cc1)Nc1cccc2cnccc12" was 383 pmol/min/mg

The measured Stability associated with "O=C(NCc1ccc(N2[C@@H]3CCC[C@H]2CC3)c(C(F)(F)F)c1)Nc1cccc2[nH]ncc12" reads 315 pmol/min/mg

###

- Tested on: Liver microsomes
- Assay Method Text: Stability in human liver microsomes at 0.5 uM after 30 mins
- Type: ADME, Microsome
- Test Settings: 0.5 h
Here, each record is paired with measured Stability data.
Numeric answer only, unit pmol/min/mg assumed.

Smiles Record	Stability [pmol/min/mg]
O=C(NCc1ccc(N2[C@@H]3CCC[C@H]2CC3)cc1)Nc1cccc2cnccc12	818

Input "O=C(NCc1ccc(N2CCCCCC2)c(F)c1)Nc1cccc2cnccc12" . Output Stability: 1223

Recorded result, "O=C(NCc1ccc(N2CCCCCC2)c(C(F)(F)F)c1)Nc1cccc2cnccc12" , Stability: 643

Lookup result for "O=C(NCc1ccc(N2[C@@H]3CCC[C@H]2CC3)c(C(F)(F)F)c1)Nc1cccc2[nH]ncc12" ; measured Stability: 445

Per the record, "O=C(NCc1ccc(C(F)(F)F)cc1)Nc1cccc2cnccc12" has Stability of 135

Reported Stability for "O=C(NCc1ccc(N2[C@@H]3CCC[C@H]2CC3)c(F)c1)Nc1cccc2[nH]ncc12" was 516

###

- Assayed System: Transient receptor potential cation channel subfamily V member 1 (Homo sapiens, UniProt Q8NER1)
- Sequence (Q8NER1 whole entry): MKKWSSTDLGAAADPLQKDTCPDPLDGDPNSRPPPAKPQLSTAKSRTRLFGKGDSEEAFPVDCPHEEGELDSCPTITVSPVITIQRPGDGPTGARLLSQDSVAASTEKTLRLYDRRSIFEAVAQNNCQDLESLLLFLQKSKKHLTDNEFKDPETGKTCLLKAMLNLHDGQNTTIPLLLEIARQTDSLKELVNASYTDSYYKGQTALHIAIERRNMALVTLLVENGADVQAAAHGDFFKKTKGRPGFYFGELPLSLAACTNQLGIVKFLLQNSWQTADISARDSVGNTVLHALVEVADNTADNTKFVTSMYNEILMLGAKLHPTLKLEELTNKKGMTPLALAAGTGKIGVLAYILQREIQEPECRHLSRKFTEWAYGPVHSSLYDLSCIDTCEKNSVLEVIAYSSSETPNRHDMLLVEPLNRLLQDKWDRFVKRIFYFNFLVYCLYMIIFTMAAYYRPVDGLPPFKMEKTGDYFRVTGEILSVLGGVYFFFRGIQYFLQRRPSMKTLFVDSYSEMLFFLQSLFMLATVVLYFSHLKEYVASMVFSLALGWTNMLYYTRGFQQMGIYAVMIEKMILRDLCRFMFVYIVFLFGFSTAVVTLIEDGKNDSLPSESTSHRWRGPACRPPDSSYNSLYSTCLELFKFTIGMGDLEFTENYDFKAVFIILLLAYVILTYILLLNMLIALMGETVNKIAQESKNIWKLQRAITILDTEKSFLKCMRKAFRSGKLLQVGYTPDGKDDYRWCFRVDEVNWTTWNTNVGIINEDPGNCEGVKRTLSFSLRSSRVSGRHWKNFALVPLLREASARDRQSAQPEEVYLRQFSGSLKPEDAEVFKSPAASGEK
- Assay Method Text: Antagonist activity at human TRPV1 receptor by calcium influx assay
- Type: functional
Measurement Name: pIC50
To interpret pIC50, take it as minus log10 of a concentration measured in moles per litre.

Smiles Record	Numeric Value
Cc1cc2c(NC(=O)NCc3ccc(N4CCCCCC4)cc3)cccc2cn1	8.42

compound "O=C(NCc1ccc(N2CCCCCC2)cc1Cl)Nc1cccc2cnccc12" , pIC50 observed: 8.28

So, "O=C(NCc1ccc(N2CCCCCCC2)cc1)Nc1cccc2cnccc12" ? Its pIC50 was 8.33

"Cn1c2ccccc2c2cc(CNC(=O)Nc3cccc4[nH]ncc34)ccc21" has a reported pIC50 of 6.04

Consider "O=C(NCc1ccc(N2CCCCCC2)cc1Cl)Nc1cccc2[nH]ncc12" . Its measured pIC50 is 6.72

For this compound ( "O=C(NCc1cc(F)c(N2[C@@H]3CCC[C@H]2CC3)c(F)c1)Nc1cccc2[nH]ncc12" ), measured pIC50 is 7.90

Data point: "O=C(NCc1cc(F)c(N2CCCCCC2)c(F)c1)Nc1cccc2[nH]ncc12" ; pIC50 = 7.41

Lab book: pIC50 of "CC(C)(C)CCc1cc(N2[C@@H]3CCC[C@H]2CC3)ccc1CNC(=O)Nc1cccc2[nH]ncc12" noted as 7.99

Measured pIC50, "O=C(NCc1cc(F)c(N2CCOCC2)c(F)c1)Nc1cccc2cnccc12" : 8.03

The measured pIC50 associated with "Cc1cc(N2[C@@H]3CCC[C@H]2CC3)ccc1CNC(=O)Nc1cccc2[nH]ncc12" reads 7.54

###

# Lookup of reported half-life keyed by entry
- Assay Method Text: Half life in rat at 10 umol/kg
- Type: ADME, organism-based
- Test Settings: in vivo
Kindly provide the numeric value in h only, without the unit symbol.

Entry "O=C(NCc1ccc(N2[C@@H]3CCC[C@H]2CC3)c(C(F)(F)F)c1)Nc1cccc2[nH]ncc12" , half-life reported as 1.4

Just so you know, measured half-life for "O=C(NCc1ccc(N2CCCCCC2)c(F)c1)Nc1cccc2cnccc12" came out at 0.69

###

Listing of entries alongside the reported clearance.
- Assay Method Text: Plasma clearance in rat at 10 umol/kg
- Assay type: ADME, organism-based
Enter your answer as a number in mL/min/kg; do not include the unit.

Smiles Record	Unit Text	clearance
O=C(NCc1ccc(N2CCCCCC2)c(F)c1)Nc1cccc2cnccc12	mL/min/kg	30

Kindly note the recorded clearance for "O=C(NCc1ccc(N2[C@@H]3CCC[C@H]2CC3)c(C(F)(F)F)c1)Nc1cccc2[nH]ncc12" , which is 16.7

###

- Species: Homo sapiens
- Assay Method Text: Protein binding in human plasma
- Test Settings: read-out: PPB (converted)
Measurement Name: fraction unbound

Kindly note the recorded fraction unbound for "O=C(NCc1ccc(N2[C@@H]3CCC[C@H]2CC3)c(C(F)(F)F)c1)Nc1cccc2[nH]ncc12" , which is 0.03

###

- Assayed System: Transient receptor potential cation channel subfamily V member 1 (Homo sapiens)
- Assay Method Text: Antagonist activity at human TRPV1 receptor by calcium influx assay
Reported values of IC50 for individual entries
Numbers only here, please. The scale is nM.

Compound	IC50 (nM)
O=C(NCc1ccc(N2[C@@H]3CCC[C@H]2CC3)cc1Cl)Nc1cccc2[nH]ncc12	58.8
O=C(NCc1ccc(N2[C@@H]3CCC[C@H]2CC3)c(F)c1)Nc1cccc2[nH]ncc12	14.8
O=C(NCc1ccc(N2[C@@H]3CCC[C@H]2CC3)cc1)Nc1cccc2[nH]ncc12	18
O=C(NCc1ccc(N2CCCCC2)cc1)Nc1cccc2cnccc12	7.3

Continue with the compound presented below.
Record CC1CN(c2ccc(CNC(=O)Nc3cccc4cnccc34)cc2)CC(C)O1 (stereo not given) . Reported IC50: 258

###

- Assay Method Text: Oral bioavailability in dog
- Format: ADME, organism-based, Canis lupus familiaris
- Test Settings: in vivo
Measurement Name: bioavailability (%)
Expressed in %, but write only the number.

Smiles Record	bioavailability (%)
O=C(NCc1ccc(N2CCCCCC2)c(F)c1)Nc1cccc2cnccc12	18

Okay, now this molecule:
Record "O=C(NCc1ccc(N2[C@@H]3CCC[C@H]2CC3)c(C(F)(F)F)c1)Nc1cccc2[nH]ncc12" , field bioavailability: 46

###

- Assayed System: Transient receptor potential cation channel subfamily V member 1 (Homo sapiens)
- Assay Method Text: Antagonist activity at human TRPV1 receptor by calcium influx assay
# reported IC50; entries follow
Please give the number followed by its unit.

Smiles Record	Assayed System	IC50
Cn1ncc2c(NC(=O)NCc3ccc(N4[C@@H]5CCC[C@H]4CC5)cc3Cc3ccccc3)cccc21	Transient receptor potential cation channel subfamily V member 1 (Homo sapiens)	19 nM
O=C(NCc1ccc(N2CCCCCC2)cc1)Nc1cccc2cnccc12	Transient receptor potential cation channel subfamily V member 1 (Homo sapiens)	3.3 nM
CC1CCN(c2ccc(CNC(=O)Nc3cccc4cnccc34)cc2)CC1	Transient receptor potential cation channel subfamily V member 1 (Homo sapiens)	9.3 nM
O=C(NCc1ccc(N2[C@@H]3CCC[C@H]2CC3)c(Br)c1)Nc1cccc2[nH]ncc12	Transient receptor potential cation channel subfamily V member 1 (Homo sapiens)	43.2 nM
O=C(NCc1ccc(N2[C@@H]3CCC[C@H]2CC3)cc1)Nc1cccc2cnccc12	Transient receptor potential cation channel subfamily V member 1 (Homo sapiens)	3.3 nM
O=C(NCc1ccc(C(F)(F)F)cc1)Nc1cccc2cnccc12	Transient receptor potential cation channel subfamily V member 1 (Homo sapiens)	2.1 nM

Sample "O=C(NCc1ccc(N2CCCCCC2)c(F)c1)Nc1cccc2[nH]ncc12" ; IC50 observed: 14.2 nM
